The entries below are paired with their reported inhibition at 10 µM.
Target: human GPR84 receptor (Homo sapiens)
Construct: host or cells: HEK293, transient transfection
Sequence (Q9NQS5 whole entry): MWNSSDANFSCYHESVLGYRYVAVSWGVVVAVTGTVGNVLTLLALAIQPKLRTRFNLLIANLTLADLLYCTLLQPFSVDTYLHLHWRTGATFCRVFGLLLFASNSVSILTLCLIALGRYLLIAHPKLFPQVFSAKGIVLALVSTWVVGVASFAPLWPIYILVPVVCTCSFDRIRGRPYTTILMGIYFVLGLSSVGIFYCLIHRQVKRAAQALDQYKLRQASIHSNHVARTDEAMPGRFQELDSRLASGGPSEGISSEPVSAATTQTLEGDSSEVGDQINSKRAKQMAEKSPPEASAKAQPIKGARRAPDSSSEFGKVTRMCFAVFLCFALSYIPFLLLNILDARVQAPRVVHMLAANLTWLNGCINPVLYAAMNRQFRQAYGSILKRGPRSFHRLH
Assay: Gαi biosensor BRET assay in HEK293 cells (antagonism of ZQ-16)
Format: cell-based
Settings: HEK293, single concentration 10 μM (designated F)

>  <molecule>
Cc1cc(C#CCN)cnc1-c1cn(CC2CCCCO2)nn1 (stereo not drawn)

>  <inhibition at 10 µM>
> 75%

$$$$
>  <molecule>
Cc1cc(N2CCC3(CC2)CN(Cc2ccccc2)C3)ccc1-c1cn(CC2CCCCO2)nn1 (stereo not drawn)

>  <inhibition at 10 µM>
≤ 25%

$$$$
>  <molecule>
CN(C)Cc1cc(C#CC2CC2)ccc1-c1cn(CC2CCCCO2)nn1 (stereo not drawn)

>  <inhibition at 10 µM>
25 to 50%

$$$$
>  <molecule>
CCn1cc(-c2ccc(-c3cn(CC4CCCCO4)nn3)c(C)c2)cn1 (stereo not drawn)

>  <inhibition at 10 µM>
≤ 25%

$$$$
>  <molecule>
Cc1cc(C#CCN(C)CC2CC2)cnc1-c1cn(CC2CCCCO2)nn1 (stereo not drawn)

>  <inhibition at 10 µM>
> 75%

$$$$
>  <molecule>
Cc1cc(N2CCNCC2)ccc1-c1cn(CC2CCCCO2)nn1 (stereo not drawn)

>  <inhibition at 10 µM>
≤ 25%

$$$$
>  <molecule>
Cc1cc(N2CC3(CCN(Cc4ccccc4)C3)C2)ccc1-c1cn(CC2CCCCO2)nn1 (stereo not drawn)

>  <inhibition at 10 µM>
≤ 25%

$$$$
>  <molecule>
Clc1cc(C#CC2CC2)cnc1-c1cn(C[C@H]2CCCCO2)nn1

>  <inhibition at 10 µM>
≤ 25%

$$$$
>  <molecule>
COc1cc(N2CC(C)(C)C2)ccc1-c1cn(CC2CCCCO2)nn1 (stereo not drawn)

>  <inhibition at 10 µM>
> 75%

$$$$
